Provenance of the data: patent US20160297884A1

Can you tell me T ½ for the items I'm about to list?
Target System: T1, Human BCMA (human, UniProt Q02223 1-54, limits assumed)
T1 construct: Soluble analyte in SPR; construct not described; also called huBCMA; B-cell maturation antigen
T1 sequence (looked up): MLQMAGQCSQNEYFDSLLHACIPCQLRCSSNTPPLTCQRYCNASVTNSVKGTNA
Protocol Notes: SPR, IgG immobilised, 25 C
Answers are plain numbers, in min.

Reference set (2 entries):
Request: Record request: T ½ value, item L1.LGF/L3.KW/P6E01 (antibody, V domains shown, IgG) VH: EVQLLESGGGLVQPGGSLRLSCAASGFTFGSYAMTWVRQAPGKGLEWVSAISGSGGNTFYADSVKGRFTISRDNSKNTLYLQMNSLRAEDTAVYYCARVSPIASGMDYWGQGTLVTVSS VL: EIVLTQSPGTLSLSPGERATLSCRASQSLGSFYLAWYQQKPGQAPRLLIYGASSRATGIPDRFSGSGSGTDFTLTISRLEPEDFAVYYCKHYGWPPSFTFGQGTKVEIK
Result: 1.53

Request: GET /values?readout=T ½&item= L1.LGF/L3.KW/H3.AL (antibody, V domains shown, IgG) VH: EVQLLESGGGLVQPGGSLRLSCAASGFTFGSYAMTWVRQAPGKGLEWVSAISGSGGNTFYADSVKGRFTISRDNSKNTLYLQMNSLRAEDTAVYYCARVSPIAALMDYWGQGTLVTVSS VL: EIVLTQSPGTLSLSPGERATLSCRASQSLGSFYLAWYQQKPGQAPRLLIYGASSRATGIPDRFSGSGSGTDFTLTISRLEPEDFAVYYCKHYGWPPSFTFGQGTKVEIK
Result: 9.4

New cases:
Request: Item L3.KW/P6E01 (antibody, V domains shown, IgG) VH: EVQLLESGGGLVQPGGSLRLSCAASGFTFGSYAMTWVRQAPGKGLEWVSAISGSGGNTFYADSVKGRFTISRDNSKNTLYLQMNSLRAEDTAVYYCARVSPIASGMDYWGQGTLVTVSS VL: EIVLTQSPGTLSLSPGERATLSCRASQSVSSSYLAWYQQKPGQAPRLLIYGASSRATGIPDRFSGSGSGTDFTLTISRLEPEDFAVYYCKHYGWPPSFTFGQGTKVEIK has what recorded T ½?
Result: 36.7
